Each recorded value in this set is attributed to patent EP4585618A1.

Consider the following binders and their measured Top readings.
- Tested Target: T1, His-tagged ILT4 protein extracellular domain: ILT4-His (human, UniProt Q8N423 22-460)
- T1 construct: Expressed in 293 cells; also called human ILT4-His protein
- T1 sequence (Q8N423 other isoform, or with tags, fused parts or gaps limits assumed): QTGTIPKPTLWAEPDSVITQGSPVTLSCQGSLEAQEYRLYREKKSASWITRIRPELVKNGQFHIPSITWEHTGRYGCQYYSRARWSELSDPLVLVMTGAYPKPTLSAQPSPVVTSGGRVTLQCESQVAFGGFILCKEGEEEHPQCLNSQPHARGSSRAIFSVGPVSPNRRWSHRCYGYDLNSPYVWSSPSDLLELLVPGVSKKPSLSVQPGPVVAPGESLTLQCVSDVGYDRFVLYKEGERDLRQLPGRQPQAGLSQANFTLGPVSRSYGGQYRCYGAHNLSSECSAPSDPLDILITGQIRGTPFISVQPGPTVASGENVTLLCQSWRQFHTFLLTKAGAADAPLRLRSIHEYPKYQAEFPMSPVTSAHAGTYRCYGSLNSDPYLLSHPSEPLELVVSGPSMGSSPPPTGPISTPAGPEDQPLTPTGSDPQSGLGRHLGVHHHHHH
- Procedure Text: ELISA, coated ILT4-His 1 µg/mL; Assay 2
Kindly answer with a numeric value in absorbance at 450 nm, unit omitted.

# count of solved cases: 3
chimeric antibody ChP2-E11 (antibody, human IgG4 S228P, kappa, F234A L235A, V domains shown, Murine variable regions with hIgG4(LALA) and CL constant regions; also called M P2-E11) VH: QVQLQQSGPELVKPGASVKISCKASAYTFTDYYINWVKQRPGQGLEWIGWIFPGSGSTYYNEKFKGKATLTVDKSSSTAYMLVSSLTSEDSAVYFCARSGTLVAPYAMDYWGQGTSVTVSS VL: SIVMTQTPKFLLVSAGDRVTITCKASQSVSNDVAWYQQKPGQSPKLLIYYTSNRYTGVPDRFTGSGYGTDFTFTISTVQAEDLAVYFCQQDYSFPLTFGAGTKLEIKR: 1.98
chimeric antibody ChP2-G4 (antibody, human IgG4 S228P, kappa, F234A L235A, V domains shown, Murine variable regions with hIgG4(LALA) and CL constant regions; also called M P2-G4) VH: EVQLQQSGPELVKPGASVKMSCKASGYTFTDYNMHWVKQSHGKSLEWIGYINPNNGGTTYNQKFKGKATLTVNKSSSTAYMELRSLTSEDSAVYYCASSEYYGSTFLFAYWGQGTLVTVSS VL: DIVMTQSHKFMSTSVGDRVGITCKASQDVSIAVAWYQQKPGQSPKLLIYSASYRYTGVPDRFTGSGSGTDFTFTISSVQAEDLAAYYCQQHYSTPWTFGGGTKLEIKR: 1.83
positive control antibody JTX (sequences from WO2019126514A2) (antibody, human IgG4 S228P, kappa, V domains shown, also called JTX-8064) VH: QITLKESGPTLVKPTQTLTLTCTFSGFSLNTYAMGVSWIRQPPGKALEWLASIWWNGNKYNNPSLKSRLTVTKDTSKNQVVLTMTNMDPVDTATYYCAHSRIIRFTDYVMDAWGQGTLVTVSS VL: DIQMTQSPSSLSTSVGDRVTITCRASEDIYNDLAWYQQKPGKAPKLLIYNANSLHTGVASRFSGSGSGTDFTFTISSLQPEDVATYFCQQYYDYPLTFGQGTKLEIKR: 1.7

Ask: Which measured Top value corresponds to chimeric antibody ChP2-E7 (antibody, human IgG4 S228P, kappa, F234A L235A, V domains shown, Murine variable regions with hIgG4(LALA) and CL constant regions; also called M P2-E7) VH: QVQLQQPGTELVKPGASVKLSCKASGYTFTSYWMHWVKQSPGQGLEWIGNINPSNGGPNYNENFKTKATLTVDKSSSTAYMQLNSLTSEDSAVYYCAGGDYYGGSYLFAYWGQGTLVTVSS VL: DTVMTQSHKFMSTSVGDRVSVTCKASQDVNIAVAWYQQKPGQSPKLLIYSSSYRYTGVPDRFTGSGSETDFTFTISSVQAEDLAVYYCQQHYTFPYTFGGGTKLEIKR ?
Reply: 2
